# Tested on: BT-549 breast
# Protocol details: NCI-60 one-dose screen, 48 h (100 = growth as untreated, 0 = no growth, -100 = all killed)
# Condition context: 10 µM unless noted
This is part of a sample that, as a whole, favours compounds with a hit. Of some 83,000 tested, about 20% had one in any assay.
Outcome measure: growth (%)
State just the number; it will be interpreted in %.

Task item: Suppose we examine the compound `O=S(=O)(NCCCNc1cc(-c2cn(-c3ccccc3)nc2-c2cccc(O)c2)ccn1)c1ccc(Br)cc1` ; what growth value has been reported?
Reply: 7.68

Task item: Suppose we examine the compound `C[N+](C)(C)c1ccc(CC2c3ccccc3-c3ccccc32)cc1` ; what growth value has been reported?
Reply: 59.2

Task item: Suppose we examine the compound CCOC(=O)C1=C(C)NC(=O)NC1c1ccc(OCC(=O)N/N=C/c2ccc(Cl)cc2)cc1 (stereo not drawn) ; what growth value has been reported?
Reply: 87.5

Task item: Suppose we examine the compound `CN(C)C/C=C/C(=O)Nc1cc2c(Nc3ccc(F)c(Cl)c3F)ncnc2cc1OCCOC(F)F` ; what growth value has been reported?
Reply: 5.73

Task item: Suppose we examine the compound `Cc1cccc(NC(=O)c2sc3nc4c(cc3c2N)CCCC4)c1` ; what growth value has been reported?
Reply: 50.8

Task item: Suppose we examine the compound COC1=CC(c2ccc[nH]2)=N/C1=C\c1[nH]c(C)c(C(=O)CCCCC(=O)Oc2ccc3c(c2)CCC2C3CC[C@]3(C)[C@@H](O)CC[C@@H]23)c1C (stereo partly drawn) ; what growth value has been reported?
Reply: 50.3

Task item: Suppose we examine the compound `COc1ccc(S(=O)(=O)Nc2cc(/C=C\c3cc(OC)c(OC)c(OC)c3)cc(OC)c2OC)cc1OC` ; what growth value has been reported?
Reply: 47

Task item: Suppose we examine the compound `O=P([O-])(O)OP(=O)([O-])O.[NH-][C@H]1CCCC[C@@H]1[NH-].[OH-].[OH-].[Pt+4]` ; what growth value has been reported?
Reply: 117

---

So I've got a bunch of compounds here, and I need their growth values.
# System: DU-145 prostate
# Protocol details: NCI-60 one-dose screen, 48 h (100 = growth as untreated, 0 = no growth, -100 = all killed)
# Condition context: 10 µM unless noted
Compounds without any hit were thinned out: in the full panel of roughly 83,000, 20% have a hit.
State just the number; it will be interpreted in %.

Task item: Suppose we examine the compound CCN1C(=O)N(CC)C2Nn3c(s/c(=C\c4cccc(F)c4)c3=O)=NC21 (stereo not given) ; what growth value has been reported?
Reply: 59.1

Task item: Suppose we examine the compound `O=C(CN1CCN(c2cc3c(cc2F)c(=O)c(C(=O)O)cn3C2CC2)CC1)Nc1ccc(C(=O)/C=C/c2ccccc2)cc1` ; what growth value has been reported?
Reply: 43.1

Task item: Suppose we examine the compound `C=C1C(=O)O[C@H]2[C@H](O)[C@@H](C)CCC/C(C)=C/CC[C@@]3(C)O[C@@H]3C[C@@H]12` ; what growth value has been reported?
Reply: 99.4

Task item: Suppose we examine the compound `FC(F)(F)c1cccc(-n2nnc3cnc(Nc4ccc(N5CCCCC5)cc4)nc32)c1` ; what growth value has been reported?
Reply: 57.6

Task item: Suppose we examine the compound `O=C(/C=C/CN1CCOCC1)Nc1cc2c(Nc3ccc(F)c(Cl)c3F)ncnc2cc1OCCOC(F)F` ; what growth value has been reported?
Reply: 39.7

Provenance of the data: PubChem BioAssay (NCI)
